Hey, just so you know, these numbers are from paper PMC9209747.

assay: clinical
assay.setup: human, in vivo, 160 mg/m2

{"compound.structure": "C=CCn1c(=O)c2cnc(Nc3ccc(N4CCN(C)CC4)cc3)nc2n1-c1cccc(C(C)(C)O)n1", "Cmax, nM": 1270}

---

assay: clinical
assay.setup: human, in vivo, 95 mg/m2
measurement.type: AUC (µM·h)

{"compound.structure": "C=CCn1c(=O)c2cnc(Nc3ccc(N4CCN(C)CC4)cc3)nc2n1-c1cccc(C(C)(C)O)n1", "measurement.type": "AUC", "obs.value": 5.74}

---

assay: clinical
assay.setup: human, in vivo, 130 mg/m2

{"compound.structure": "C=CCn1c(=O)c2cnc(Nc3ccc(N4CCN(C)CC4)cc3)nc2n1-c1cccc(C(C)(C)O)n1", "unit.annotation": "µM·h", "AUC(0-inf)": 5.87}

---

assay: clinical
assay.setup: human, in vivo, 160 mg/m2, Tmax

{"compound.structure": "C=CCn1c(=O)c2cnc(Nc3ccc(N4CCN(C)CC4)cc3)nc2n1-c1cccc(C(C)(C)O)n1", "Tmax": "2.2 h"}

---

assay: clinical
assay.setup: human, in vivo, 50 mg/m2
measurement.type: AUC(0-inf) (µM·h)

{"compound.structure": "C=CCn1c(=O)c2cnc(Nc3ccc(N4CCN(C)CC4)cc3)nc2n1-c1cccc(C(C)(C)O)n1", "obs.value": 2.22}

---

assay: clinical
assay.setup: human, in vivo, 160 mg/m2, AUC0-8h

{"compound": "C=CCn1c(=O)c2cnc(Nc3ccc(N4CCN(C)CC4)cc3)nc2n1-c1cccc(C(C)(C)O)n1 [adavosertib]", "AUC(0-t) (µM·h)": 8.47}

---

assay: clinical
assay.setup: human, in vivo, 95 mg/m2, AUC0-8h

{"compound.structure": "C=CCn1c(=O)c2cnc(Nc3ccc(N4CCN(C)CC4)cc3)nc2n1-c1cccc(C(C)(C)O)n1", "AUC(0-t) / µM·h": 4.01}

---

assay: clinical
assay.setup: human, in vivo, 50 mg/m2

{"compound": "C=CCn1c(=O)c2cnc(Nc3ccc(N4CCN(C)CC4)cc3)nc2n1-c1cccc(C(C)(C)O)n1 [adavosertib]", "unit.annotation": "µM·h", "AUC": 2.45}

---

assay: clinical
assay.setup: human, in vivo, 200 mg/m2
measurement.type: Cmax (nM)

{"molecule": "C=CCn1c(=O)c2cnc(Nc3ccc(N4CCN(C)CC4)cc3)nc2n1-c1cccc(C(C)(C)O)n1 [adavosertib]", "obs.value": 1650}
